Data provenance: patent US9738642B2

- System Tested: human mGluR2 (Homo sapiens)
- Construct: expressed in transfected cells; host or cells: HEK293 clonal line
- Sequence (Q14416 19-872): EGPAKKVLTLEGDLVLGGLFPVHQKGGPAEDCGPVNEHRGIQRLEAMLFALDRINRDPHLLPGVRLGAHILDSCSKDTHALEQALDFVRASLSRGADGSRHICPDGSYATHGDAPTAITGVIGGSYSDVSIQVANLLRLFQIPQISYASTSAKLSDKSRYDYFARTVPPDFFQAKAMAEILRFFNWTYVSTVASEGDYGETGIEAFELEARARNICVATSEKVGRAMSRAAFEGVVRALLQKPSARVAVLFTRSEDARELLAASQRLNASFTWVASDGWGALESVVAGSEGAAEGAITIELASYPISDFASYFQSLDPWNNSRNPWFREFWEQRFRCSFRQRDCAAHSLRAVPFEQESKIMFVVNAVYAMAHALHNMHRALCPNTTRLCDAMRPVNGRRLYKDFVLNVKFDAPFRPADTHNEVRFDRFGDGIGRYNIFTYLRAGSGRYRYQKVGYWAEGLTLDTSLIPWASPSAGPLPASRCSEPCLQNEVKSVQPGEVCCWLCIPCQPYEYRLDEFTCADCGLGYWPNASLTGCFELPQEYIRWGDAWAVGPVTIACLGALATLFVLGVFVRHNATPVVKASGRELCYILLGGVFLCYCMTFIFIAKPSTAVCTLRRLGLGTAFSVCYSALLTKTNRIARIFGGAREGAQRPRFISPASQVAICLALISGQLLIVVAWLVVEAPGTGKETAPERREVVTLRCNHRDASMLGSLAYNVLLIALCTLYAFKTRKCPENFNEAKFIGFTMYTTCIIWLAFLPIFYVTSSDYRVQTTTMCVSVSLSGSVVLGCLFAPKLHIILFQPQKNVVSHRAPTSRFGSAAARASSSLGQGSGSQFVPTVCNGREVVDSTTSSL
- Assay Details: mGluR2 cAMP assay
- Assay type: cell-based
- Assay Conditions: clonally expressed human mGluR2 in HEK293; 1 μM forskolin, 1 μM LY-341495, 30 min; CISBIO cAMP kit; read-out: EC50 (nM), activity in mGluR2 cAMP assay
Structures can show the parent of a compound that is named as a salt.
Endpoint Label: EC50 (nM)

Here are 5 molecules together with their reported answers.
Molecule | System Tested | Endpoint Unit | EC50
COc1ccccc1[C@@H]1C[C@H]1COc1ccn2c(CC3CC3)nnc2c1C(F)(F)F (single isomer, unassigned) [Example 40] | human mGluR2 (Homo sapiens) | nM | 1.4
Fc1ccccc1[C@H]1C[C@@H]1COc1ccn2c(CC3CC3)nnc2c1C(F)(F)F (racemic) [Example 43] | human mGluR2 (Homo sapiens) | nM | 1.4
CO[C@](C)(COc1ccn2c(CC3CC3)nnc2c1C(F)(F)F)c1ccc(F)cc1 (single isomer, unassigned) [Example 25] | human mGluR2 (Homo sapiens) | nM | 25
COc1cccc(F)c1COc1ccn2c(CC3CC3)nnc2c1Cl [Example 72] | human mGluR2 (Homo sapiens) | nM | 42
Clc1ccc(COc2ccn3c(CC4CC4)nnc3c2Cl)cc1 [Example 58, TFA salt] | human mGluR2 (Homo sapiens) | nM | 60

[A] N#C[C@]1(c2cc(F)cc(F)c2)C[C@H](Oc2ccn3c(CC4CC4)nnc3c2C(F)(F)F)C1 [Example 54]
[B] C[C@@](C#N)(COc1ccn2c(CC3CC3)nnc2c1C(F)(F)F)c1ccc(F)cc1 (single isomer, unassigned) [Example 14]
Parameter metric = EC50. Return the lower-valued option from A and B . Kindly give the label for the entry you pick.
A
(A: 2.2 nM, B: 230 nM)
